- measurementTarget: NMDA receptors (NR2B subunit containing) (Rattus norvegicus, UniProt P35439+Q00960)
- Construct: endogenous in cells; host or cells: primary neocortical neurons from 17 day old Charles River rat embryos, 4-7 days in vitro
- Sequence (Q00960 27-1482, other chains not shown): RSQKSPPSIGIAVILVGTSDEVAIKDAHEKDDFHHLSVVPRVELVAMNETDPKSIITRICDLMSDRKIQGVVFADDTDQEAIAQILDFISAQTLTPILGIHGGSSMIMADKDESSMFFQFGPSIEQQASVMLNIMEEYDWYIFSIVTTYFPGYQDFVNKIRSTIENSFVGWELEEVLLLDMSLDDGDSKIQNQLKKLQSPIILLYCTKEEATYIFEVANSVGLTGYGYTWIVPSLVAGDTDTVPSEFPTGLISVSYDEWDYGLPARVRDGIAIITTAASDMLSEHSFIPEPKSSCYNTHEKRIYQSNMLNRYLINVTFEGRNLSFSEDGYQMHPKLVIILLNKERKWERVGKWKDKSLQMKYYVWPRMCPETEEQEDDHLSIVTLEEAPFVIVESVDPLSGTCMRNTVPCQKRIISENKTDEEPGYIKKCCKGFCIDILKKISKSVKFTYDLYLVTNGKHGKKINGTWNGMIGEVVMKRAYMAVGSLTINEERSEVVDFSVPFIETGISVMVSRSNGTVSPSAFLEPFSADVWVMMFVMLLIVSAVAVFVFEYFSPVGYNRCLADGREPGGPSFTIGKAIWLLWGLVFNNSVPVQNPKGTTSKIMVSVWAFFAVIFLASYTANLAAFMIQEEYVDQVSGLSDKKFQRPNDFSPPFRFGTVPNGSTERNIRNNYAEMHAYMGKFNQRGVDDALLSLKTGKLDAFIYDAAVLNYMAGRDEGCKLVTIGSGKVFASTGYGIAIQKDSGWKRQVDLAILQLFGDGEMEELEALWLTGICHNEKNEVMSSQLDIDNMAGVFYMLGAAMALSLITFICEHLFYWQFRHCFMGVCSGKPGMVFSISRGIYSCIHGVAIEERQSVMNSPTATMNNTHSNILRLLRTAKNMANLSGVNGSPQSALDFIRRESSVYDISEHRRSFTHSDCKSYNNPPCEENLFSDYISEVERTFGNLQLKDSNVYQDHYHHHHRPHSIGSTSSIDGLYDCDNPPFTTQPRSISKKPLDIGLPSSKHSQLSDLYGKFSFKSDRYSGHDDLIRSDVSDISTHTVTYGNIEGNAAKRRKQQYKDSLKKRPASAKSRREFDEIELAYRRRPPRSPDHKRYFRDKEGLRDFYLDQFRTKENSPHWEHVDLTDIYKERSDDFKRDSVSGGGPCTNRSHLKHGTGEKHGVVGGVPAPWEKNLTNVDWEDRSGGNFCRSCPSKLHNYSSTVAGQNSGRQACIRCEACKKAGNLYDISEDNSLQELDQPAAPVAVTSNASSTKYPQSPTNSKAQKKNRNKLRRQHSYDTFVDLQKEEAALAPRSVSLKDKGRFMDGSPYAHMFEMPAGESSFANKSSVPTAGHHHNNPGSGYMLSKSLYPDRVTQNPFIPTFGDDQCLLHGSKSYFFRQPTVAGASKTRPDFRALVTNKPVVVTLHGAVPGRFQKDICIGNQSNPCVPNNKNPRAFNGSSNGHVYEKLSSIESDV
- assayDetails: Functional NMDA antagonist potency: intracellular calcium measurement in primary cultures of rat cortical neurons (fluorimeter plate reader)
- Assay type: cell-based
experimentalReadout: pIC50
Would you please state pIC50, meaning minus log10 of the concentration in mol/L, as a bare number?

Prompt: Please give the measured pIC50 for this compound: O=c1[nH]c2ccc([S+]([O-])CCN3CCC(Cc4ccc(F)cc4)CC3)cc2o1 (stereo not shown) [CI-1041, reference compound]
Response: 8.18
